tested on: HCC1937; assay: normalised response (% of control), CellTiter-Glo; higher = more viable cells (100 = DMSO, 0 = benzethonium chloride kill control); settings: incubation time: 72 h
result type: normalised response (%)
Return type: number; implicit unit %.

CCN(CC)CCCC(C)Nc1c2ccc(Cl)cc2nc2ccc(OC)cc12 (stereo not given) [Mepacrine] (50 nM) | 104
C=CC(=O)Nc1cc2c(Nc3ccc(F)c(Cl)c3)ncnc2cc1OCCCN1CCOCC1 [Canertinib] (1000 nM) | 88.1
COc1cc2c(Oc3ccc4[nH]c(C)cc4c3F)ncnc2cc1OCCCN1CCCC1 [Cediranib] (0.1 nM) | 104
CCN(CC)CCCC(C)Nc1c2ccc(Cl)cc2nc2ccc(OC)cc12 (stereo not given) [Mepacrine] (5000 nM) | 101
CCc1cncnc1N1CCN(Cc2nc3ccc(C(F)(F)F)cc3[nH]2)CC1 (1000 nM) | 91.1

Entry N#Cc1ccc(C(c2ccc(C#N)cc2)n2cncn2)cc1 [Letrozole] (1 nM) , normalised response reported as 89.2

According to the records, this compound Nc1ccccc1NC(=O)c1ccc(CNC(=O)OCc2cccnc2)cc1 [Entinostat] (1 nM) displays normalised response of 99.2

Lab note: Oc1ncc(N(CCCl)CCCl)c(O)n1 [Uracil mustard] (10 nM) gave normalised response of 99.7

Looking up O=C(O)CCCCC(CCSCc1ccccc1)SCc1ccccc1 (stereo not given) [CPI-613] (10 nM) , I found its normalised response recorded as 99

Note to self: normalised response recorded for C=CCc1cccc(/C=N/NC(=O)CN2CCN(Cc3ccccc3)CC2)c1O [PAC-1] (1 nM) was 106

The compound listed as O=C(Cc1ccc(-c2ccc(OCCN3CCOCC3)cc2)cn1)NCc1ccccc1 [KX2-391] (1 nM) has a reported normalised response of 99.4

Looking up O=C(O)CCCCC(CCSCc1ccccc1)SCc1ccccc1 (stereo not given) [CPI-613] (1 nM) , I found its normalised response recorded as 104

The compound listed as COc1cc([C@@H]2c3cc4c(cc3[C@@H](O[C@@H]3O[C@@H]5CO[C@@H](c6cccs6)O[C@H]5[C@H](O)[C@H]3O)[C@H]3COC(=O)[C@H]23)OCO4)cc(OC)c1O [Teniposide] (1000 nM) shows normalised response equal to 72.4

Per the records, this compound ( O=C(Cc1ccc(-c2ccc(OCCN3CCOCC3)cc2)cn1)NCc1ccccc1 [KX2-391] (1000 nM) ) has normalised response equal to 72.8

For record CC[C@@H]1C(=O)N(C)c2cnc(Nc3ccc(C(=O)NC4CCN(C)CC4)cc3OC)nc2N1C1CCCC1 [BI 2536] (1 nM) the listed normalised response is 94.6

The reported measurements were obtained from the supplement of paper PMC4862054.
